Measured values drawn from patent US7741337B2 for this set.

Test system: human cancer cell lines Hs683, U-373MG, HCT-15, LoVo, A549 and MCF-7
Experiment: MTT test, effect on overall cell growth (mean of six cell lines, examples 3 to 26)
Assay type: cell-based
Details: mean of six cell lines Hs683, U-373MG, A549, MCF-7, 72 hours incubation, range of molar concentrations resulting in 50% inhibition of overall tumor cells growth
pIC50: −log10 of the molar value.
Recorded pIC50 values for a group of molecules are listed next.

MOLECULE: CN(C)CCN1C(=O)c2cccc3cc4c(N=Cc5cc(O)ccc5O)cccc4c(c23)C1=O (stereo in doubt)
pIC50: 5.30 to 6.00
//
MOLECULE: CN(C)CCN1C(=O)c2cccc3cc4cccc(NC(=O)CCCCl)c4c(c23)C1=O
pIC50: 5.30 to 6.00
//
MOLECULE: CN(C)CCN1C(=O)c2cccc3cc4cccc(NC(=O)Oc5ccc(F)cc5)c4c(c23)C1=O
pIC50: < 5.00
//
MOLECULE: CN(C)CCN1C(=O)c2cccc3cc4cccc(/N=C\c5ccc6c(c5)OCO6)c4c(c23)C1=O
pIC50: < 5.00

###

Tested on: human cancer cell lines Hs683, U-373MG, HCT-15, LoVo, A549 and MCF-7
Assay: MTT test, effect on overall cell growth (mean of six cell lines, examples 3 to 26)
Assay type: cell-based
Settings: mean of six cell lines Hs683, U-373MG, A549, MCF-7, 72 hours incubation, range of molar concentrations resulting in 50% inhibition of overall tumor cells growth
Where a name gives a salt, the structure may show the parent alone.
Reported IC50 values are given for each entry in this list.

MOLECULE: CN(C)CCN1C(=O)c2cccc3cc4c(NC(=O)NC(=O)c5ccccc5)cccc4c(c23)C1=O [Example 16, hydrochloride]
IC50: 1 to 5 µM
--
MOLECULE: CCOC(=O)Nc1cccc2cc3cccc4c3c(c12)C(=O)N(CCN(C)C)C4=O [Example 17]
IC50: > 10 µM
--
MOLECULE: CN(C)CCN1C(=O)c2cccc3cc4cccc(NC(=O)Nc5ccc6c(c5)OCO6)c4c(c23)C1=O [Example 12]
IC50: 5 to 10 µM
--
MOLECULE: CN(C)CCN1C(=O)c2cccc3cc4c(/N=C/c5ccc6c(c5)OCO6)cccc4c(c23)C1=O [Example 8]
IC50: 1 to 5 µM
--
MOLECULE: CN(C)CCN1C(=O)c2cccc3cc4c(NC(=O)Nc5ccc6c(c5)OCO6)cccc4c(c23)C1=O [Example 14]
IC50: > 10 µM
--
MOLECULE: CN(C)CCN1C(=O)c2cccc3cc4cccc(NC(=O)CC(=O)CCc5ccccc5)c4c(c23)C1=O [Example 22]
IC50: > 10 µM
--
MOLECULE: CN(C)CCN1C(=O)c2cccc3cc4cccc(N)c4c(c23)C1=O [Example 3, reference compound]
IC50: 5 to 10 µM
--
MOLECULE: CCCCCCCCCC(=O)CC(=O)Nc1cccc2cc3cccc4c3c(c12)C(=O)N(CCN(C)C)C4=O [Example 20]
IC50: > 10 µM
--
MOLECULE: CN(C)CCN1C(=O)c2cccc3cc4cccc(/N=C\c5cc(O)ccc5O)c4c(c23)C1=O [Example 5]
IC50: > 10 µM
--
MOLECULE: COC(=O)Nc1cccc2cc3cccc4c3c(c12)C(=O)N(CCN(C)C)C4=O [Example 9]
IC50: 5 to 10 µM
--
MOLECULE: CCOC(=O)CCC(=O)CC(=O)Nc1cccc2cc3cccc4c3c(c12)C(=O)N(CCN(C)C)C4=O [Example 23]
IC50: > 10 µM
--
MOLECULE: CN(C)CCN1C(=O)c2cccc3cc4cccc(NC(=O)Cc5ccc(Cl)cc5)c4c(c23)C1=O [Example 11]
IC50: > 10 µM
--
MOLECULE: CN(C)CCN1C(=O)c2cccc3cc4cccc(NC(=O)Oc5ccccc5)c4c(c23)C1=O [Example 18]
IC50: > 10 µM
--
MOLECULE: CN(C)CCN1C(=O)c2cccc3cc4c(N)cccc4c(c23)C1=O [Example 4, reference compound]
IC50: 1 to 5 µM
--
MOLECULE: CCCCCNC(=O)Nc1cccc2cc3cccc4c3c(c12)C(=O)N(CCN(C)C)C4=O [Example 13]
IC50: 5 to 10 µM
--
MOLECULE: CCCCCCCCOC(=O)Nc1cccc2cc3cccc4c3c(c12)C(=O)N(CCN(C)C)C4=O [Example 25]
IC50: 5 to 10 µM
